- Tested on: DU-145 prostate
- protocolText: NCI tumour cell line growth inhibition, 48 h

smilesText	TGI
Cc1cc(-c2nc3cc(F)ccc3s2)ccc1N	> 92.1 µM
COc1cc2c(cc1NC(=O)c1ccccc1)c1c(n2S(=O)(=O)c2ccccc2)CCN(S(=O)(=O)c2ccccc2)C1	> 100 µM
COc1ccc(/C=C2/SC(=Nc3ccccc3)N(NC(=O)Cc3ccccc3)C2=O)cc1	> 100 µM

====

- Test system: OVCAR-4 ovarian
- protocolText: NCI tumour cell line growth inhibition, 48 h

smilesText	TGI
NC(=O)c1c[nH]c2ncnc(N)c12	> 100 µM
CCOC(=O)/C(=C\c1c[nH]c2ccccc12)P(=O)(OCC)OCC	89.4 µM
O=c1ccn(C/C=C/c2ccccc2)c(=S)n1C/C=C/c1ccccc1	> 100 µM
CCOC(=O)c1c(-c2ccccc2)n2c(=O)cc(C)c3c(O)c(O)cc1c32	11.4 µM

====

- Tested on: BT-549 breast
- protocolText: NCI tumour cell line growth inhibition, 48 h

smilesText	TGI
COc1nc(=O)[nH]c2c1C(c1ccc([N+](=O)[O-])cc1)c1c(OC)nc(=O)[nH]c1O2	> 100 µM
COc1cccc(C(=O)NNc2nc(Cl)nc(N3CCN(C(c4ccccc4)c4ccccc4)CC3)n2)c1	3.31 µM
CCCCCCC(=O)OC[n+]1ccc(-c2c(COC(=O)NC(C)C)c(COC(=O)NC(C)C)c3n2CCC3)cc1	> 100 µM
O=c1[nH][nH]c(=O)n1Cc1ccccc1	> 100 µM
COc1cc(-c2oc3c(OC)c(O)c(OC)c(O)c3c(=O)c2OC)cc(OC)c1OC	> 100 µM

====

- Test system: DU-145 prostate
- protocolText: NCI tumour cell line growth inhibition, 48 h; in the data active = GI50 below about 0.43 µM; inactive = the rest
Labels: active, inactive

smilesText	assignedClass
COc1cccc2nc(Nc3cccc(NC(=O)c4ccc(N5CCN(C)CC5)c(C(F)(F)F)c4)c3)ccc12	inactive
C[C@@]12CC[C@@H](O)C[C@@H]1CC[C@H]1[C@H]2CC[C@@]2(C)[C@H](c3ccc(=O)oc3)CC[C@@]12O	active
CS(=O)(=O)N1CCC(Nc2ncc(C(=O)c3c(F)cccc3F)c(N)n2)CC1	inactive

====

Each entry below lists one item and its recorded TGI value.
- System: K-562 leukemia
- protocolText: NCI tumour cell line growth inhibition, 48 h

molecule	TGI
COc1cc(/C=C2\CCC/C(=C\c3cc(CN4CCCC4)c(O)c(OC)c3)C2=O)cc(CN2CCCC2)c1O	16.9 µM
CCCCCCC(=O)OC[n+]1ccc(-c2c(COC(=O)NC(C)C)c(COC(=O)NC(C)C)c3n2CCC3)cc1	> 100 µM
CC(=O)OC(C(=O)[O][Ge]([CH3])([CH3])[CH3])c1ccccc1 (stereo not drawn)	> 100 µM

====

- Tested on: CAKI-1 renal
- protocolText: NCI tumour cell line growth inhibition, 48 h; in the data active = GI50 below about 0.43 µM; inactive = the rest
Outcomes: label 1 (active), label 0 (inactive)

molecule	assignedClass
COc1cc(/C=C2\CC3C4CCC5=CC(=O)CC[C@]5(C)C4CC[C@]3(C)C2=O)ccc1OCCN1CCCC1 (stereo partly drawn)	label 0
COc1ccc(C2=C(c3ccccc3)C(=O)N3CCCC3C2)cc1 (stereo not drawn)	label 0
CCN1CCN(Cc2ccc(Nc3ncc(F)c(-c4cc(F)c5nc(C)n(C(C)C)c5c4)n3)nc2)CC1	label 1

====

- System: SK-MEL-5 melanoma
- protocolText: NCI tumour cell line growth inhibition, 48 h
Quick list: TGI per entry.

compound	TGI
COc1cc(C2C(C(=O)NCc3ccccc3)=C(C)NC(C)=C2C(=O)NCc2ccccc2)ccc1O	> 100 µM
Cc1ccc(NC(=O)c2cccc(OP(=O)(Nc3ccc(C)cc3)Nc3ccc(C)cc3)c2)cc1	> 100 µM
CSC12c3cc(C)n(-c4ccc(I)cc4)c3CC(C)(C)CN1C(=O)C2Oc1ccccc1 (stereo unspecified)	> 100 µM
O=C(Cc1cc(O)ccc1O)NO	> 100 µM
COc1ccc(COCC[C@H](C)OC2OC(CO[Si](C)(C)C(C)(C)C)C(O)C(O)C2O)cc1 (stereo partly specified)	> 100 µM
Cc1cc(S(=O)(=O)Nc2nc3ccccc3c(=O)n2Cc2ccco2)c(S)cc1Cl	> 100 µM

====

We begin with a simple list: items and their reported TGI.
- System: BT-549 breast
- protocolText: NCI tumour cell line growth inhibition, 48 h

molecule	TGI
Nc1nc2ccc(CNc3ccc(C(=O)NC(CC(=O)O)C(=O)O)cc3)cc2c(=O)[nH]1 (stereo not given)	> 31 µM
CC(C)[C@@]12C[C@@H](OC(=O)COC(=O)c3ccccc3)[C@@](C)(O1)[C@@H]1CC[C@@H](C)[C@H]1[C@@H]2OC(=O)/C=C/c1ccccc1	> 100 µM
CCOc1cc(Cl)c(C(C)NC(=O)c2cccc(OC)c2)cc1OCC (stereo not given)	> 100 µM
COc1ccc(OC)c(C2=C(c3cn(C)c4ccccc34)C(=O)NC2=O)c1	> 25 µM
CCCCC(CC)C(=O)Oc1ccc(C(=O)c2ccccc2)c(O)c1 (stereo not given)	> 100 µM

====

- System: IGROV1 ovarian
- protocolText: NCI tumour cell line growth inhibition, 48 h; in the data active means GI50 below about 0.43 µM; inactive means the rest
Possible outcomes: Yes (active), No (inactive)

molecule	target	assignedClass
CCN1CCN(Cc2ccc(Nc3ncc(F)c(-c4cc(F)c5nc(C)n(C(C)C)c5c4)n3)nc2)CC1	IGROV1 ovarian	No
c1cc[n+](Cc2c3ccccc3cc3c2ccc2ccccc23)cc1	IGROV1 ovarian	No
CCOC(=O)C1=C(C)NC2SC(=O)/C(=C\c3cccc(Cl)c3)N2C1c1ccccc1 (stereo not drawn)	IGROV1 ovarian	No
COc1ccccc1CNCCCN1C(=O)c2ccc3c4c(ccc(c24)C1=O)C(=O)N(CCCNCCCCNCCCN)C3=O	IGROV1 ovarian	Yes
CC[C@]12C=CCN3CC[C@@]4(c5ccc(OC)cc5N(C)[C@H]4[C@@](O)(C(=O)OC)[C@@H]1OC(=O)CCC(=O)O[C@H]1CC[C@H]4[C@@H]5CCC6=CC(=O)CC[C@@H]6[C@H]5CC[C@]14C)[C@@H]32	IGROV1 ovarian	No
Cc1ccc2ncnc(N(C)C3CCCCC3)c2c1	IGROV1 ovarian	No
Cn1c2c(c3ccccc31)CCN1C[C@@H]3CCCC[C@H]3C[C@@H]21	IGROV1 ovarian	No
CC(=O)OC(C(=O)[O][Ge]([CH3])([CH3])[CH3])c1ccccc1 (stereo not drawn)	IGROV1 ovarian	No
COc1ccc(-c2nc3sccn3c2-c2ccnc(NCCNS(=O)(=O)c3ccc(C(F)(F)F)cc3)n2)cc1	IGROV1 ovarian	No
COc1ccc(OC)c(C2=C(c3cn(C)c4ccccc34)C(=O)NC2=O)c1	IGROV1 ovarian	No
CS(=O)(=O)N1CCC(Nc2ncc(C(=O)c3c(F)cccc3F)c(N)n2)CC1	IGROV1 ovarian	No
Cc1cc(O)ccc1C1(c2ccc(O)cc2C)OC(=O)c2ccccc21	IGROV1 ovarian	No
Cc1nc2ccc(-n3ncc(C(=O)c4cc5ccccc5[nH]4)c3N)cc2[nH]1	IGROV1 ovarian	No

====

- Tested on: SF-268 CNS
- protocolText: NCI tumour cell line growth inhibition, 48 h

molecule	TGI
COC(C)=NCCC1=CCCCC1	> 100 µM
Cn1cc(-c2csc(-c3ccccc3)n2)c2cccnc21	43 µM
c1ccc2c(c1)nc1ccccn12	> 100 µM
COc1ccc2nc3cc([N+](=O)[O-])ccc3c(NCCO)c2c1	11.5 µM
COP12(OC)NC(=O)OC1(C(F)(F)F)c1ccccc1O2 (centres undefined)	> 100 µM
Nc1c(S(=O)(=O)O)cc(S(=O)(=O)O)c2ccc(N=Nc3ccccc3)c(O)c12	> 100 µM
CC[C@]12C=CCN3CC[C@@]4(c5ccc(OC)cc5N(C)[C@H]4[C@@](O)(C(=O)OC)[C@@H]1OC(=O)CCC(=O)O[C@H]1CC[C@H]4[C@@H]5CCC6=CC(=O)CC[C@@H]6[C@H]5CC[C@]14C)[C@@H]32	> 50 µM
NC(=O)C1=C(O)[C@@]2(O)C(=O)C3=C(O)c4c(O)cccc4CC3C[C@H]2CC1=O (some centres undefined)	17.8 µM
CCOC(=O)/C(=C\c1c[nH]c2ccccc12)P(=O)(OCC)OCC	> 100 µM
c1ccc2c(c1)CCN1CCc3ccccc3C1C2 (centres undefined)	> 100 µM
Cc1nc2ccc(-n3ncc(C(=O)c4cc5ccccc5[nH]4)c3N)cc2[nH]1	> 100 µM
Cc1cc(-c2nc3cc(F)ccc3s2)ccc1N	> 90.5 µM
CCOC(=O)c1sc2nc(SC)nc3c2c1NC(=O)CN3c1ccc(F)cc1	36.2 µM
Cc1[nH]c(=O)n2c(C)nnc2c1C(=O)O	> 100 µM
C=C1N(C)c2ccc(S(=O)(=O)c3ccc4c(c3)C(C)(C)C(=C)N4C)cc2C1(C)C	> 100 µM
C=C(C)[C@@H]1CC[C@]2(C(=O)O)CC[C@]3(C)[C@H](CC[C@@H]4[C@@]5(C)C/C(=C/c6ccco6)C(=O)C(C)(C)[C@@H]5CC[C@]43C)[C@@H]12	> 100 µM
CC(=O)OC1C(O)C(C)OC(OC2C(OC(=O)C3CCC4C(C3)OC3(CC(OC(=O)/C=C/c5ccccc5)C(C)CO3)C43CO3)OC(C)C(O)C2OC(C)=O)C1O (centres undefined)	0.0499 µM
C/C=C\C1OC1(C)c1cc(=O)c2c(C)cc3c(c2o1)C(=O)c1c(O)c(C2CC(C)(N(C)C)C(OC(C)=O)C(C)O2)cc(C2CC(N(C)C)C(O)C(C)O2)c1C3=O (centres undefined)	0.0721 µM
O=C(c1ccccc1)c1ccc(N2C(=O)/C(=C/c3ccccc3S)N=C2c2ccccc2)c(N2C(=O)/C(=C/c3ccccc3S)N=C2c2ccccc2)c1	> 100 µM
CCCCCCCCCCCCCCCC(=O)NS(=O)(=O)OC[C@H]1O[C@@H](n2cnc3c(N)ncnc32)[C@H](O)[C@@H]1O	1.28 µM
C1=NN2C(c3ccccc3)=NOC2C2C(c3ccccc3)=NOC12 (centres undefined)	> 100 µM
OC1C2CCCCN2C[C@@H](O)[C@H]1O (some centres undefined)	> 100 µM
COc1ccc(-c2cc(=O)c3c(OC)c4ccoc4c(/C=C/C=O)c3o2)cc1	87.2 µM
CC1=CC2(C)C=C[C@@H]1C(=O)[C@@]1(C)CC[C@@](O)(C(C)C)[C@H]1CC2	57.1 µM

Each recorded value in this set is attributed to PubChem BioAssay (NCI).
